Assay: reduction of polyQ htt aggregates in cells – imaging, exon1htt(103Q)mCFP cells, high-content imaging, primary screen (AID 483);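 note: compound exposure lasted 3 days before fixation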
Details: exon1htt(103Q)mCFP cell line, aggregate imaging, at 2 µM; stronger effect = higher value
quantity kind: inhibition of aggregation (%)

[[record]]
molecule = "CCSC1(SCC)N=C(N)C2(C#N)C(c3ccccc3)NC(C)=C(C)C12C#N (centres undefined)"
units_symbol = "%"
data_value = 13.7

[[record]]
molecule = "CCc1ccc(C2CC(c3cccc(OC)c3)n3nc(N)nc3N2)cc1 (centres undefined)"
units_symbol = "%"
data_value = 3.7

[[record]]
molecule = "Cc1cc(C)n(Cc2nc3ccccc3n2C)n1"
units_symbol = "%"
data_value = 4

[[record]]
molecule = "CCOC(=O)c1ccc(NC(=O)CSc2nnc(COc3ccccc3)n2C)cc1"
units_symbol = "%"
data_value = -6.7

[[record]]
molecule = "Cc1cc(C)n(C(=O)C23CC4CC(CC(C4)C2)C3)n1"
units_symbol = "%"
data_value = 14.6

[[record]]
molecule = "CC1CCN(S(=O)(=O)c2ccc3[nH]c(=O)cc(C(=O)O)c3c2)CC1"
units_symbol = "%"
data_value = 8.5

[[record]]
molecule = "CCOc1ccc(NC(=O)c2ccncc2)cc1"
units_symbol = "%"
data_value = 8.2

[[record]]
molecule = "COc1ccc(-c2noc(C3CCCN(C(=O)CCc4ccccc4)C3)n2)cc1 (centres undefined)"
units_symbol = "%"
data_value = 18.4

[[record]]
molecule = "c1ccc(-c2cn3cccnc3n2)cc1"
units_symbol = "%"
data_value = 12.5


* * *

Biological target: Voltage-gated potassium channel subunit beta-2 (Rattus norvegicus) (UniProt P62483)
Sequence (P62483 whole entry, looked up): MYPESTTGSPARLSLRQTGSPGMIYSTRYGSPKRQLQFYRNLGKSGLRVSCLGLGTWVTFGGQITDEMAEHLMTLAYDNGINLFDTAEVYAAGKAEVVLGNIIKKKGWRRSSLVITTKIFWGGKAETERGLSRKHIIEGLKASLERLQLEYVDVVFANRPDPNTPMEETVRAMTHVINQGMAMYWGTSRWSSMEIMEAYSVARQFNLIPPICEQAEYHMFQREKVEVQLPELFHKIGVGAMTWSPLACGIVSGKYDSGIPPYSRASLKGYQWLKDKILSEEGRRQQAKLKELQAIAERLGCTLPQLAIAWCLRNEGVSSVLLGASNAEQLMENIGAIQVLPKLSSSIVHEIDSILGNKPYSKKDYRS
Assay: enhancers of rat Kvbeta2 NADPH turnover – biochemical, NADPH fluorescence, primary screen (AID 623);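 note: fluorescence intensity change per second fitted from 20 to 320 s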
Conditions: Recombinant KvBeta, NADPH fluorescence decrease slope, 10 min; at 10 µM; stronger effect = lower value
Each item that follows carries a reported NADPH fluorescence slope.
quantity kind: NADPH fluorescence slope

[[record]]
compound = "CCOc1cc2[nH]c(=S)n(CC3CCCO3)c(=O)c2cc1OCC (stereo unspecified)"
target_desc = "Voltage-gated potassium channel subunit beta-2 (Rattus norvegicus) (UniProt P62483)"
data_value = "4e-05"

[[record]]
compound = "COc1ccc(-c2nnc(SCC(=O)N3CCCCC3)o2)cc1OC"
target_desc = "Voltage-gated potassium channel subunit beta-2 (Rattus norvegicus) (UniProt P62483)"
data_value = "-9.6e-06"

[[record]]
compound = "CCOc1ccccc1NC(=O)N1C2CCCC1CC(NC(=O)C1CC1)C2 (stereo unspecified)"
target_desc = "Voltage-gated potassium channel subunit beta-2 (Rattus norvegicus) (UniProt P62483)"
data_value = "4.4e-06"

[[record]]
compound = "CC(=O)Nc1nnc(SCC(=O)NCC2CCCO2)s1 (stereo unspecified)"
target_desc = "Voltage-gated potassium channel subunit beta-2 (Rattus norvegicus) (UniProt P62483)"
data_value = "-3.1e-05"

[[record]]
compound = "CC(C)(C)NC(=O)CC(CC(=O)O)c1ccccc1 (stereo unspecified)"
target_desc = "Voltage-gated potassium channel subunit beta-2 (Rattus norvegicus) (UniProt P62483)"
data_value = "-3.4e-05"

[[record]]
compound = "Cc1cc2nc3c(nc2cc1C)C1(C(=O)O)CCC3(C)C1(C)C (stereo unspecified)"
target_desc = "Voltage-gated potassium channel subunit beta-2 (Rattus norvegicus) (UniProt P62483)"
data_value = -0.000111

